All values here come from patent US10611740B2.

Target: UniProtKB P51449
Sequence (P51449 269-508 limits assumed): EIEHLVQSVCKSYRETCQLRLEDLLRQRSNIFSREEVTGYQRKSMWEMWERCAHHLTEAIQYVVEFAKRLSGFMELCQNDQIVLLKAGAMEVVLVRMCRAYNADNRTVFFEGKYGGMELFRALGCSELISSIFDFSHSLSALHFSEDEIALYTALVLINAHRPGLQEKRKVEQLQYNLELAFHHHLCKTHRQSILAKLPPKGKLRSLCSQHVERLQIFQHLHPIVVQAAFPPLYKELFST
Assay: RORγ-Ligand Binding Domain (LBD) TR-FRET Assay
MEASURE_NAME: EC50

get_value(item= O=C(NC[C@H]1CN(S(=O)(=O)c2cccc(C(F)(F)F)c2)c2cc(-c3cccc(F)c3Cl)ccc2O1)C1(CO)CC1 [Compound 30CB] , readout=EC50) returns < 500 nM

For record Cc1c(F)cc(-c2ccc3c(c2)N(S(=O)(=O)c2cccc(C(F)(F)F)c2)C[C@H](CC(C)C(=O)O)O3)c(Cl)c1F (stereo partly drawn) [Compound 46A] the listed EC50 is < 500 nM

Next:
The measured EC50 associated with `Cc1ccc(Cl)c(-c2ccc3c(c2)N(S(=O)(=O)c2cccc(C(F)(F)F)c2)C[C@H](CCC(=O)O)O3)c1` reads < 500 nM
